# Tested on: IL-2 production in Jurkat human T lymphocyte cells
# Assay Explanation: IL-2 production assay for activity of compounds incubated with human serum
# Run Parameters: Table 7; Jurkat cells (48 hrs); 100 nM
Readout Name: IL-2 pg/mL at given concentration (nM)

>>> reading("CC(C)[C@]12O[C@H]1[C@@H]1O[C@]13[C@]1(O[C@H]1C[C@H]1C4=C(CC[C@@]13C)C(=O)OC4)[C@@H]2O [PG490, Triptolide]")
"120.7 pg/mL"
>>> reading("CC(C)[C@]12O[C@H]1[C@@H]1O[C@]13[C@]1(O[C@H]1C[C@H]1C4=C(CC[C@@]13C)C(=O)OC4)[C@@H]2OC(=O)NCCN(C)C")
"873.3 pg/mL"
>>> reading("CCNC(=O)O[C@@H]1[C@@]2(C(C)C)O[C@H]2[C@@H]2O[C@]23[C@]12O[C@H]2C[C@H]1C2=C(CC[C@@]13C)C(=O)OC2 [PG666, Triptolide 14-Ethyl Carbamate]")
"528.0 pg/mL"
>>> reading("CC(C)[C@]12O[C@H]1[C@@H]1O[C@]13[C@]1(O[C@H]1C[C@H]1C4=C(CC[C@@]13C)C(=O)OC4)[C@@H]2OC(=O)CCC(=O)O [PG490-88, triptolide-14-succinate, reference compound]")
"317.5 pg/mL"

###

Below, each entry is listed with its recorded IL-2 pg/mL at given concentration (nM).
# Tested on: IL-2 production in Jurkat human T lymphocyte cells
# Assay Explanation: IL-2 production assay for activity of compounds incubated with human serum
# Run Parameters: Table 8; Jurkat cells; 0.1 nM
# Procedure: Several compounds of formula I were analyzed for their capacity to inhibit IL-2 production in Jurkat human T lymphocyte cells, after incubation with pooled human serum for 48 hours at 37° C. (see Example 20). […] The IC50 values (column 1) are calculated directly from the data in each experiment. The % conversion values (column 2) are calculated as the percent of the IC50 value produced by triptolide, designated PG490, incubated in the same plasma (i.e. in the same experiment). […]
Readout Name: IL-2 pg/mL at given concentration (nM) (pg/mL)

>>> reading("CC(C)[C@]12O[C@H]1[C@@H]1O[C@]13[C@]1(O[C@H]1C[C@H]1C4=C(CC[C@@]13C)C(=O)OC4)[C@@H]2OC(=O)CCC(N)C(=O)O (stereo partly drawn) [PG661, 14-isoglutamyl ester, reference compound]")
120.7
>>> reading("CC(C)[C@]12O[C@H]1[C@@H]1O[C@]13[C@]1(O[C@H]1C[C@H]1C4=C(CC[C@@]13C)C(=O)OC4)[C@@H]2OC(=O)N1CCN(C)CC1 [PG672, N-methylpiperazinecarbonyl (carbamate)]")
117.1
>>> reading("CC(C)[C@]12O[C@H]1[C@@H]1O[C@]13[C@]1(O[C@H]1C[C@H]1C4=C(CC[C@@]13C)C(=O)OC4)[C@@H]2OC(=O)Nc1ccccc1 [PG671, Triptolide 14-Phenyl Carbamate]")
114.7

###

# Test system: IL-2 production in Jurkat human T lymphocyte cells
# Assay Explanation: IL-2 production assay for activity of compounds incubated with human serum
# Run Parameters: Table 8; Jurkat cells; 0.01 nM
Readout Name: IL-2 pg/mL at given concentration (nM) (pg/mL)

>>> reading("CC(C)[C@]12O[C@H]1[C@@H]1O[C@]13[C@]1(O[C@H]1C[C@H]1C4=C(CC[C@@]13C)C(=O)OC4)[C@@H]2OC(=O)Nc1ccccc1 [PG671, Triptolide 14-Phenyl Carbamate]")
99.7
>>> reading("CC(C)[C@]12O[C@H]1[C@@H]1O[C@]13[C@]1(O[C@H]1C[C@H]1C4=C(CC[C@@]13C)C(=O)OC4)[C@@H]2OC(=O)N1CCN(C)CC1 [PG672, N-methylpiperazinecarbonyl (carbamate)]")
99.1
>>> reading("CCNC(=O)O[C@@H]1[C@@]2(C(C)C)O[C@H]2[C@@H]2O[C@]23[C@]12O[C@H]2C[C@H]1C2=C(CC[C@@]13C)C(=O)OC2 [PG666, Triptolide 14-Ethyl Carbamate]")
97.0
>>> reading("CC(C)[C@]12O[C@H]1[C@@H]1O[C@]13[C@]1(O[C@H]1C[C@H]1C4=C(CC[C@@]13C)C(=O)OC4)[C@@H]2OC(=O)CCC(N)C(=O)O (stereo partly drawn) [PG661, 14-isoglutamyl ester, reference compound]")
123.6
>>> reading("CC(C)[C@]12O[C@H]1[C@@H]1O[C@]13[C@]1(O[C@H]1C[C@H]1C4=C(CC[C@@]13C)C(=O)OC4)[C@@H]2O [PG490, Triptolide]")
83.2
>>> reading("CC(C)[C@]12O[C@H]1[C@@H]1O[C@]13[C@]1(O[C@H]1C[C@H]1C4=C(CC[C@@]13C)C(=O)OC4)[C@@H]2OC(=O)CCC(=O)O [PG490-88, triptolide-14-succinate, reference compound]")
87.5
